Form field: TGI (one value per entry).
# System: SNB-78 CNS
# assay.notes: NCI tumour cell line growth inhibition, 48 h

Sample records with TGI:
* O=C1CC[C@H]2CNC(=O)C[C@H]2C1 | > 100 µM
* CN(C)c1ccc(/C=C2\C[N+](C)(C)C/C(=C\c3ccc(N(C)C)cc3)C2=O)cc1 | > 95.8 µM
* OCc1ccccc1C1CSCSC1 | > 100 µM
* OCCNCO | > 100 µM
* C[C@]12CCC(=O)C=C1CC[C@@H]1C2CC[C@]2(C)NC(=O)C(C#N)CC12 (stereo partly specified) | > 100 µM

We next turn to a different compound, shown below.
Incoming: Query (compound): CN1CCCNCCN(CCc2ccccn2)CCCN(C)CC1 ; field requested: TGI
Outgoing: > 100 µM

These data points were gathered from PubChem BioAssay (NCI).
